test: yeast display, Sf9 membrane polyspecificity reagent, FACS + sequencing; frameworks hold sequencing errors
assay_metric: polyreactivity (PSR sort gate)

The cases that follow already have their polyreactivity (PSR sort gate) on record.
- sequence_input: "QVQLVESGGGLVQAGGSLRLSCAASGFTFRGNAMGWYRQAPGKERELVAAITSSGGRTYYADSVKGRFTISRDNAKNTVYLQMNSLKPVDTAVYYCAARYAYPSRYYYWGQGTQGTVSS"
  result: "high polyreactivity"
- sequence_input: "QVQLVESGGGLVQAGGSLRLSCAASGLTFYINDMGWYRQAPGKERELVAAITRGGSTNYADSVKGRLTISRDNAKNTVYLQMNSLKPEDTAVYYCAAGARYGYGYWGHGTQVTVSS"
  result: "high polyreactivity"
- sequence_input: "QDQLVESGGGLVQAGGSLRISSAASGRTYKSNAMGWYRQAPGKERELVATISRGGGSTYYADSVKGRFTISRDNAKNTVYLQMNSLKPEDTAVYYCAKGSNSYLRYHYTYPYDYWGQGTQVTVSS"
  result: "high polyreactivity"
- sequence_input: "QVQLVESGGGLVQAGGSLRLSCAASGRTFDYNAMGWYRQAPGKERELVAAISSSGGTTYYADPVKGRFTISRDNAKNTVYLQMNSLKPEDTAVYYCNADVGHKYKRRVSLYYWGQGTQVTVSS"
  result: "low polyreactivity"
- sequence_input: "QVQLVESGGALVKAGGSLRLSCAASGYIFYGYAMGRYRQAPGKEWELVAAITVRGGSTYYADSVKGRFTISRDNAKNTVYLQMNSLKPEDTAVYYCAAAPQFTFGVGYWGQGTQVTVSS"
  result: "low polyreactivity"

Ask | # lookup: polyreactivity (PSR sort gate) of QVQIVESGGGLVQAAGSLRLSCAAYGRIFGVYAMGWYRQAPGKERELVSNITSGGSTSYADSVKGRFTISRDNAKNTVYLQMNSLKPEDTAVYYCNAPYSFFWQQMNYWGQGTQVTVSS
Reply | low polyreactivity

Ask | Form field: reported polyreactivity (PSR sort gate) of QVQLVESGGGIVQEGGSLRLSCAASGRTFGLNVMGWYRQAPGKERELVATISWSGGTTYYADSVKGRYTISRDNAKNTVYFQMKSLKPEDTGVYYCNRQVTWYPTGGYWGQGTQVTVSS
Reply | low polyreactivity

Ask | Field request: polyreactivity (PSR sort gate) | item: QVQLVESGGGLVQAGGSLRLSCAASGSIFYTNAMGWYRQAPGKERELVAAITRTGSTNYADSVKGRFTISRDNAKNTVYLQMNSLKPEDTAVYYCNARRYYRYGYWGQGTQVTVSS
Reply | high polyreactivity

Ask | What does the data say about its polyreactivity (PSR sort gate)? Entry: QVQLVESGGGLVQAGGSLRLSCAASGFTFSAYTMGWYRQAPGKESELVAAINWSGANTYYADSVKGRFTISRDNAKNTVYLQMNSLKPEDTAVYFCNAEDDYTYDRSFGGYKYDYWGQGTQVTVSS
Reply | low polyreactivity

Ask | What does the record list as polyreactivity (PSR sort gate) for QVQLVESGGGLVQAGGRLRLSCAASGRIFVIKSMGWYRQAPAKERELVAAISKRGGSTYYADSVKGRFTISRDNAKNTVYLQMNSLKPEDTAVYYCAARFKTTGYDYWGQGTQVTVSS ?
Reply | high polyreactivity

###

experiment: yeast display, Sf9 membrane polyspecificity reagent, FACS + sequencing; frameworks hold sequencing errors
assay_metric: polyreactivity (PSR sort gate)

Examples from the recorded data:
- sequence_input: "QVQLVESGGGLVQAGGSLRLSCAASGNIFCINTMGWYRQAPGKERELVAAIDASDGSTYYADSVKGRFTISRDNAKNTVYLQMNSLKPEDTAVYYCATRSGYDSVYYFYTLWYYYWGQGTQVTVCS"
  polyreactivity (PSR sort gate): "low polyreactivity"
- sequence_input: "KVQLVESGGGLVQAGGSLRLSCAASGRIFGRNAMGGYRQAPGKERELVAAINVSSGGTYYADSVKGRFTISRDNAKNTVYLQMNSLKPEDTAVYFCAARARWAGLRYTRYYYWGQGTQVTVSS"
  polyreactivity (PSR sort gate): "high polyreactivity"
- sequence_input: "QVQLVESGGGLVQAGGSLRLSCAASGFTLNGYAMGWYRQAPGKERELVAAISSSGGRTYYADSVKGRFTISRDNAKNTVYLQMNCLKPEDTAVYYCAAVVYYEDGYWGQGTQVTVSS"
  polyreactivity (PSR sort gate): "low polyreactivity"
- sequence_input: "QVQLVESGGGLVQAGGSLRLSCAASGFIFYFYTMGWYRQAPGKERELVAGITWLDGSTYYADSVKGRFTISRDNAKNTVYLQMNSLKPEDTAVYYCAVDYDLVVSPYYYWGQGTQVTVSS"
  polyreactivity (PSR sort gate): "low polyreactivity"
- sequence_input: "QVQLVESGGGLVQAGGSLRLSCAASGLTIKPNAMGWYRQAPGKERELVAAIDWSGGSTYCADSVKGRFTISRDNAKNTVDLQMNSLKPEDTAVYYCAADPPDRLFLYDYWGQGTQVTVSS"
  polyreactivity (PSR sort gate): "low polyreactivity"

Ask | Look up polyreactivity (PSR sort gate) for this sequence: QVQLVESGGGLVQAGGTLRLSCAASGSIFRYYAMGWYRQAPGKERELVASSSRRGGSTYYADSVKGRFTISRDIANITVYGQMNSLKPEDTAVYYCAAYSYVYGERYYYWGQGSQVTVSS
Reply | high polyreactivity

Ask | // returns reported polyreactivity (PSR sort gate) for input QVQLVESGGGLVQAGGSLRLICAASGRIFGRNAMGWYRQAPGKERELVAVITWRGGSTYYADSVKGRFTISRDNAKNTVYLQMNSLKPEDTAVYYCAADTSRYYLPRYRTDYWGQGTQVTVSS
Reply | high polyreactivity

Ask | Requested field: polyreactivity (PSR sort gate). Item: QVQLVESGGGLVQAGGSLRLSCAASGFTFIRYAMGWYSQAAGKDRELVARITSSGSSTYADSVKGRFTISRDKAKNTVYLQMNSLKPEDTAVYYCAAKVHTRRRFDYWGQGTQVTVSS
Reply | high polyreactivity

Ask | Please look up its polyreactivity (PSR sort gate): QVQLVESGGGLVQAGGSLRLSCAASGSIFGTYAMGWYRQAPGKEREMVARITSGGSTNYADSVKGRFTISRDNAKNTVFLQMNSLKPEDTAVYYCAARQYHWYLPSYWYRYDYWGQGTLVTVSS
Reply | high polyreactivity

Ask | What does the record list as polyreactivity (PSR sort gate) for QVQLVESGGGLDQAGGSLRLSCAASGFTFAYNARGRYRQAPGKERELVAAITTRGGGTYYADSVKGRFTISRDNAKYTVYLQMNSLKPEDTAVYYCAAKKSRYPYNYWGQGTQVTVSS ?
Reply | high polyreactivity

Ask | Return reported polyreactivity (PSR sort gate); argument: QVQLVESGGGLVQSGGSLRLSCAASGFTFYFNAMGWYRPAPGKERELVAAIRWSGGNTYYADSVKGRFTISRDNAKNTVYLQMNSLKPEDTAVYYCNKDPWHDTYSVKEYDYWGQGTQVTVSS
Reply | low polyreactivity
